System: EKVX NSCLC
Assay: NCI-60 one-dose screen, 48 h (100 = growth as untreated, 0 = no growth, -100 = all killed)
Details: 10 µM unless noted
Method: Growth inhibition of the EKVX human Non-Small Cell Lung tumor cell line is measured as a screen for anti-cancer activity. Cells are grown in 96 well plates and exposed to the test compound for 48 hours. Compounds are tested at a single concentration, which is 10^-5 M for most compounds. The reported endpoint is percent growth (GI% or GIPRCNT), where numbers from 0 - 100% represent growth inhibition, and numbers from -100% - 0 represent cell death. […]
Compounds without any hit were thinned out: in the full panel of roughly 83,000, 20% have a hit.
Entries and their growth
Unit % implied. Number only.

>>> numeric_value("COc1ccc(C(c2ccc(OC)cc2)C(Cl)(Cl)Cl)cc1")
95.7
>>> numeric_value("N#[N+]c1nc2nc(N)[nH]c(=O)c2[nH]1")
100
>>> numeric_value("CCOC(=O)c1cnc(SCc2ccc(Cl)c(Cl)c2)nc1N1CC1")
69.7
>>> numeric_value("O=C(c1cccs1)C1NO[N+]([O-])=C1c1cccs1 (stereo not given)")
102

Now consider a different compound.
Query :: Please indicate recorded growth of ClCCN(CCCl)c1ccc(/C=C\c2ccnc3ccccc23)cc1 measured with EKVX NSCLC.
Result :: 81

###

Tested on: OVCAR-3 ovarian
Assay: NCI-60 one-dose screen, 48 h
Conditions: 10 µM unless noted
This is part of a sample that, as a whole, favours compounds with a hit. Of some 83,000 tested, about 20% had one in any assay. Activity calls are given as the source filed them. Rule for the calls: active = growth percent below 10; inactive = the rest.
Respond with a class label; see active, inactive

>>> qualitative_label("Cc1ccc(C(=O)C2CN(C)CCC2(O)c2ccc(C)cc2)cc1 (stereo unspecified)")
"inactive"
>>> qualitative_label("COc1ccc(/C=C\\c2cc(OC)c(OC)c(OC)c2)cc1N/C=C\\C(=O)c1c[nH]c2ccccc12")
"active"
>>> qualitative_label("FC(F)=C(F)c1ccccc1")
"inactive"
>>> qualitative_label("O=C(O)C1[O][Sb][O]C1C(=O)O (stereo unspecified)")
"inactive"
>>> qualitative_label("O=C(N/N=C/c1ccc(N(CCCl)CCCl)cc1)c1cc(=O)[nH]c(=O)[nH]1")
"inactive"
>>> qualitative_label("CC[CH2][Pb]([CH2]CC)([CH2]CC)[O]C(=O)C(F)(F)F")
"active"
>>> qualitative_label("CCC[CH2][Sn]([CH2]CCC)([CH2]CCC)[O]C(=O)c1ccc(Cl)cc1Cl")
"active"
>>> qualitative_label("Nc1ccc([N+](=O)[O-])c2c1Oc1ccccc1O2")
"inactive"

Query :: Can you look up the reported call for CCC(CC)(c1ccccc1)C(OC(N)=O)c1ccccc1 (stereo unspecified) for me?
Result :: inactive

Query :: Can you look up the reported call for CC(=O)O[C@H]1CC[C@H]2[C@@H]3CC[C@H]4CC=C(C)C[C@]4(C)[C@H]3CC[C@]12C for me?
Result :: inactive

Query :: Can you look up the reported call for CN1C(=O)NC(=O)C(N=Nc2ccc(Cl)cc2)C1=O (stereo unspecified) for me?
Result :: inactive

Query :: Can you look up the reported call for CC(=O)O[C@H]1CCC2(C)C(=CCC3C2CCC2(C)/C(=N/OC(=O)c4ccc(N(CCCl)CCCl)cc4)CCC32)C1 (stereo partly specified) for me?
Result :: inactive

Query :: Can you look up the reported call for CO[C@@H](c1ccccc1Cl)[C@H](C)OC(N)=O for me?
Result :: inactive

Query :: Can you look up the reported call for COc1cc(CNCCc2ccc(Cl)cc2)cc(OC)c1O for me?
Result :: inactive

Query :: Can you look up the reported call for CCOP(=O)(OCC)Oc1ccc(Sc2ccc(OP(=O)(OCC)OCC)cc2)cc1 for me?
Result :: inactive

Query :: Can you look up the reported call for COc1cccc2c1C(=O)c1c(O)c3c(c(O)c1C2=O)CC(O)(/C(C)=N/NC(=O)CCC(=O)N/N=C(\C)C1(O)Cc2c(O)c4c(c(O)c2C(OC2CC(N)C(O)C(C)O2)C1)C(=O)c1c(OC)cccc1C4=O)CC3OC1CC(N)C(O)C(C)O1 (stereo unspecified) for me?
Result :: active

###

Tested on: SF-295 CNS
Assay: NCI-60 one-dose screen, 48 h
Settings: 10 µM unless noted
The panel holds about 83,000 compounds, 20% with a hit somewhere; the sample as a whole holds those more often. Active and inactive are the calls of the source. How the source made its calls: active means growth percent below 10; inactive means the rest.
Respond with a class label; see 1 (active), -1 (inactive)

// below: answered molecules
>>> qualitative_label("C/C(=C\\c1cc(C(F)(F)F)n(-c2ccc(N)cc2)n1)[C@@H]1C[C@@H]2O[C@]2(C)CCC[C@H](C)[C@H](O)[C@@H](C)C(=O)C(C)(C)[C@@H](O)CC(=O)O1")
1
>>> qualitative_label("O=C1NC(=O)C(Cc2ccccc2)(Cc2ccccc2)C(=O)N1")
-1
>>> qualitative_label("O=C1NC2(CCNCC2)Nc2ccccc21")
-1
>>> qualitative_label("C/C(=N/OC(=O)N(C)C)c1cc(Cl)ccc1Cl")
-1
>>> qualitative_label("O=C(O)CC(Br)C(=O)CBr (stereo not drawn)")
-1
>>> qualitative_label("CSc1ccccc1NP1(=O)OCC(C)([N+](=O)[O-])CO1 (stereo not drawn)")
-1
>>> qualitative_label("CC1(C)N=C(N)N=C(N)N1c1ccc(CCCCc2ccc(S(=O)(=O)F)cc2)cc1")
1
>>> qualitative_label("COc1cc(C2CC(=O)Nc3nc(N)[se]c32)cc(OC)c1OC (stereo not drawn)")
1

Query :: Can you look up the reported call for CC1CC=CCC12C(=O)NC(=S)NC2=O (stereo not drawn) for me?
Result :: -1

Query :: Can you look up the reported call for CCC(CC)(c1ccccc1)C(OC(N)=O)c1ccccc1 (stereo not drawn) for me?
Result :: -1

Query :: Can you look up the reported call for C[C@]12C[C@H](O)[C@H]3[C@@H](CCC4=CC(=O)CC[C@@]43C)[C@@H]1CC[C@@H]2O for me?
Result :: -1

###

System: HL-60(TB) leukemia
Assay: NCI-60 one-dose screen, 48 h (100 = growth as untreated, 0 = no growth, -100 = all killed)
Conditions: 10 µM unless noted
About 83,000 compounds went through this panel and 20% of them were active in at least one assay; those are over-represented in the sample as a whole.
quantity: growth (%)
Unit % implied. Number only.

Consider the following illustrative entries.
>>> numeric_value("CCCCCCCOc1cccc(/C=C2/C(=O)N=C3SCCCN32)c1")
95.2
>>> numeric_value("Cc1ccc2c(c1)CC(O)CC1C(=O)N(CCO)CC(=O)N21 (centres undefined)")
96.9
>>> numeric_value("O=c1cc(Cl)nc2ccccn12")
92.9
>>> numeric_value("CCOC(=O)c1c(C)nn(CC(O)c2ccccc2)c1NC(=O)Nc1cccc(F)c1 (centres undefined)")
107
>>> numeric_value("CC(=O)c1ccc(C)c(N)c1")
94.8

Query :: Recall and state the measured growth for COc1ccc(O)c(-c2cc(-c3ccccc3)c(C#N)c(=O)[nH]2)c1 .
Result :: 112

Query :: Recall and state the measured growth for O=C1c2cc3c(cc2-c2c1c1ccc(Cl)cc1c(=O)n2CCCn1ccnc1)OCO3 .
Result :: -29.1

###

Tested on: OVCAR-5 ovarian
Assay: NCI-60 one-dose screen, 48 h (100 = growth as untreated, 0 = no growth, -100 = all killed)
Settings: 10 µM unless noted
This is part of a sample that, as a whole, favours compounds with a hit. Of some 83,000 tested, about 20% had one in any assay.
quantity: growth (%)
Unit % implied. Number only.

>>> numeric_value("CCOCC1(CCc2ccccc2)C(=O)NC(=S)NC1=O")
107
>>> numeric_value("CCC1([N+](=O)[O-])COP(=O)(NCc2cccnc2)OC1 (configuration not stated)")
99.7
>>> numeric_value("O=C1NC(=O)C(O)(C2(O)C(=O)NC(=O)NC2=O)C(=O)N1")
88.1
>>> numeric_value("CN1CC2CCC(C1)C2=O")
103
>>> numeric_value("NC(=O)C(Br)CBr (configuration not stated)")
10.9
>>> numeric_value("O=[N+]([O-])c1cccc([As]=[As]c2cccc([N+](=O)[O-])c2)c1 (configuration not stated)")
-85.2
>>> numeric_value("OC1(c2ccc(Cl)cc2Cl)c2ccccc2C2=NCCN21 (configuration not stated)")
94.4
>>> numeric_value("FC(F)=C(F)c1ccccc1")
112

Query :: Please indicate recorded growth of COc1cc(C2CC(=O)Nc3nc(N)[se]c32)c(OC)c2c1OCO2 (configuration not stated) measured with OVCAR-5 ovarian.
Result :: 108

Query :: Please indicate recorded growth of c1ccc([As]=[As]c2ccccc2)cc1 (configuration not stated) measured with OVCAR-5 ovarian.
Result :: -7.9

Query :: Please indicate recorded growth of CN(Cc1cccnc1)N=O measured with OVCAR-5 ovarian.
Result :: 99.8
